target: histamine 3 receptor (H3R) (Homo sapiens)
Sequence (Q9Y5N1 whole entry): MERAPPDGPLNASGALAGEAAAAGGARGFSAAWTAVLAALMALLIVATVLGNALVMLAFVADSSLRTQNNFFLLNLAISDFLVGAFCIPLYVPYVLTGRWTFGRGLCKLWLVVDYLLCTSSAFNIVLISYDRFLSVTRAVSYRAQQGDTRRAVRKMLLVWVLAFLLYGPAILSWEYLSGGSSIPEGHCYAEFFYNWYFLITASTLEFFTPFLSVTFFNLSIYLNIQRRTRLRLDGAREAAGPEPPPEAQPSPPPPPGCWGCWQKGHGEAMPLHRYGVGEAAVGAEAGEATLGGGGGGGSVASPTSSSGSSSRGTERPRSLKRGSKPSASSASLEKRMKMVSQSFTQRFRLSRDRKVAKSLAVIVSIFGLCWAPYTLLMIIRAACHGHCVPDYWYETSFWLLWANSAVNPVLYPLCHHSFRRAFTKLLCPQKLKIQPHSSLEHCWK
PARAMETER_MEASURED: Ki (nM)

| COMPOUND | UNIT_SPEC | RECORDED_MEASUREMENT |
| --- | --- | --- |
| Cc1c(C(=O)N2CCC(F)(F)CC2)oc2cc(OC3CCN(C4CCC4)CC3)c(Cl)cc12 [Example 91] | nM | 2.6 |

[1] COC(=O)N1CCN(C(=O)c2oc3cc(OC4CCN(C5CCC5)CC4)c(Cl)cc3c2C)CC1 [Example 94]
[2] CC(C)N1CCC(Oc2ccc3c(-c4ccccc4)c(C(=O)N4CCC(F)(F)CC4)oc3c2)CC1 [Example 17]
[3] COC(=O)N1CCN(C(=O)c2oc3cc(OC4CCN(C(C)C)CC4)c(Cl)cc3c2C(C)C)CC1 [Example 72]
[4] CC(C)N1CCC(Oc2cc3oc(C(=O)N4CCS(=O)(=O)CC4)c(-c4ccc(F)cc4)c3cc2Cl)CC1 [Example 82]
Asked: Arrange these compounds by their Ki, starting with the largest number. Reply with the item labels sorted in the order that was asked for.
Given back: 1, 2, 3, 4
(1: 2.3 nM, 2: 1.3 nM, 3: 0.8 nM, 4: 0.4 nM)
